# TEST SYSTEM: Phenylethanolamine N-methyltransferase (Bos taurus, UniProt P10938)
# Sequence (P10938 whole entry): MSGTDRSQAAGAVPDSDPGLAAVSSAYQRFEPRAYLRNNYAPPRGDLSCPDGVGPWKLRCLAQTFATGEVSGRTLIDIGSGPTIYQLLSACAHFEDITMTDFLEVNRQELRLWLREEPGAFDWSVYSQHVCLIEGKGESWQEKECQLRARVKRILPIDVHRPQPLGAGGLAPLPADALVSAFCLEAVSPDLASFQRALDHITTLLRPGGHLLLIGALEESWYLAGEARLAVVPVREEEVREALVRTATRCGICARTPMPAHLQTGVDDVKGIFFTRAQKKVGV
# PROTOCOL SUMMARY: Affinity for bovine Phenylethanolamine N-Methyltransferase
REPORTED METRIC: Ki (nM)
Only the number, expressed in nM, is required.

Check out these entries, answers already filled in.
[
  {
    "MOLECULE": "CS(=O)(=O)c1ccc2c(c1)CNC(CF)C2 (stereo not drawn)",
    "VALUE": 1600
  },
  {
    "MOLECULE": "O=S(=O)(NCc1ccccc1)c1ccc2c(c1)CNC(CF)C2 (stereo not drawn)",
    "VALUE": 6500
  },
  {
    "MOLECULE": "CNS(=O)(=O)c1ccc2c(c1)CNC(CF)C2 (stereo not drawn)",
    "VALUE": 2400
  },
  {
    "MOLECULE": "FCC1Cc2ccc(I)cc2CN1 (stereo not drawn)",
    "VALUE": 210
  }
]

// recorded Ki for O=S(=O)(Nc1ccc(Cl)cc1)c1ccc2c(c1)CNC(CF)C2 (stereo not drawn) : 740

// recorded Ki for NS(=O)(=O)c1ccc2c(c1)CNC(CF)C2 (stereo not drawn) : 660

// recorded Ki for N#Cc1ccc2c(c1)CNC(CF)C2 (stereo not drawn) : 1100

// recorded Ki for O=[N+]([O-])c1ccc2c(c1)CNC(CF)C2 (stereo not drawn) : 540
